// data source = patent US20220348584A1

Test system: HEK293-EGFP-eIF2a cells
Test: PERK Cellular Assay (TR-FRET, GFP-eIF2α, tunicamycin-induced ER stress)
Assay type: cell-based, human
Details: Homo sapiens, 2 h, HEK293-EGFP-eIF2a cells, tunicamycin 2 hours, TR-FRET; read-out: Cellular eIF2α IC50
pIC50: −log10 of the molar value.
Some compounds, each annotated with its measured pIC50.

Consider the following illustrative entries.
compound="Cc1nc(N)c2c(-c3ccc4c(c3F)CCN4C(=O)C(O)c3cc(F)cc(F)c3)cn(C)c2n1 (racemic)" meas_value="7.60 to 9.00"
compound=Cc1cccc(CC(=O)N2CCc3c2ccc(-c2cn(C)c4nc(C)nc(N)c24)c3F)n1 meas_value="7.30 to 7.59"
compound=Cn1cc(-c2ccc3c(c2F)CCN3C(=O)Nc2ccccc2)c2c(N)ncnc21 meas_value="5.52 to 5.70"
compound=Cc1cc(C)n(CC(=O)N2CCc3c2ccc(-c2cn(C)c4nc(C)nc(N)c24)c3F)n1 meas_value="7.00 to 7.29"
compound=CCc1cnc(N)c2c(-c3ccc4c(c3F)CCN4C(=O)Cc3cccc(C)n3)nc(C)n12 meas_value="7.00 to 7.29"

Measured on HEK293-EGFP-eIF2a cells, Cn1cc(-c2ccc3c(c2F)CCN3C(=O)C(F)(F)c2ccccc2)c2c(N)ncnc21 has a documented pIC50 of 6.60 to 7.00

# lookup: Cc1nc(-c2ccc3c(c2)CCN3C(=O)Cc2cc(F)cc(C(F)(F)F)c2)c2c(N)ncc(Cl)n12 on HEK293-EGFP-eIF2a cells, pIC50 = 7.60 to 9.00

Item: Cc1cccc(CC(=O)N2CCc3c2ccc(-c2nc(C)n4cc(C)nc(N)c24)c3F)n1 | System: HEK293-EGFP-eIF2a cells | pIC50: 6.60 to 7.00
